Here's a batch of compounds along with measured pIC50 for Serine/threonine-protein kinase PAK 1 (Homo sapiens).
One number for each entry, as −log10 of the molar value.

Quick note, pIC50 for c1nc(NC2CCCC2)c2nc[nH]c2n1 landed at 4.74

Then there is this compound:
// pIC50 value for CC1CC(Nc2ncnc3nc[nH]c23)CC(C)(C)C1 (configuration not stated) : 4.64
